The measurements presented in this section are drawn from patent US12492188B2.

Give pIC50 for every item shown.
Target: human TLR8 (Homo sapiens)
Sequence (Q9NR97 27-1041): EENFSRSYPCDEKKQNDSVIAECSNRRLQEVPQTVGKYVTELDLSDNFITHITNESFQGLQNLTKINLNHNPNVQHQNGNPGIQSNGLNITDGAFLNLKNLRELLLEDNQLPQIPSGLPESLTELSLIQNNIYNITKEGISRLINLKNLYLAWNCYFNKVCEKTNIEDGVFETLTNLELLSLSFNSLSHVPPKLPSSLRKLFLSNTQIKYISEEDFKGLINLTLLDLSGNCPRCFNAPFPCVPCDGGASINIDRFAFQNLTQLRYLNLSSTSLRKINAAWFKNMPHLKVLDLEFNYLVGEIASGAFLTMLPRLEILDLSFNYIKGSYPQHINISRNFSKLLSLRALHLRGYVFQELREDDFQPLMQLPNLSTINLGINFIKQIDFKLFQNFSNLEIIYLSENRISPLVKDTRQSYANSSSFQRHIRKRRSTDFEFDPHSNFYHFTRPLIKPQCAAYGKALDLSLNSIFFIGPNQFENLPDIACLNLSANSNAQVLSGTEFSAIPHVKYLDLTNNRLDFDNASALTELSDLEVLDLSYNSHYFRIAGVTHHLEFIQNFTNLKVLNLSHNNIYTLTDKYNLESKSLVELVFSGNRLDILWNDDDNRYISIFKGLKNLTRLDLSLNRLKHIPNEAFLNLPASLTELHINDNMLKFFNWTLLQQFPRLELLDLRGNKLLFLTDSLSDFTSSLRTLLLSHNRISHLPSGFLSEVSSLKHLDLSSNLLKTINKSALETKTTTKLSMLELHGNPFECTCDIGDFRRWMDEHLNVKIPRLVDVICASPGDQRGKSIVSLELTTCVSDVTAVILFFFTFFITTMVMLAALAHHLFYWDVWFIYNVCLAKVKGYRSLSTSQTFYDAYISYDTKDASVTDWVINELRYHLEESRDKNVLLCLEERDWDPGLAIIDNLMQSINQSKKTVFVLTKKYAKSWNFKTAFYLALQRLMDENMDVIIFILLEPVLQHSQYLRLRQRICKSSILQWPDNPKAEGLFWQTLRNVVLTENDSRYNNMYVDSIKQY
Assay: TLR8 inhibition reporter assay (HEK-Blue cells, secreted embryonic alkaline phosphatase reporter)
Details: HEK-Blue cells overexpressing human TLR8, stimulated with R848 15.9 μM; read-out: TLR 8 IC50
pIC50: −log10 of the molar value.

Worked examples, 3 compounds total:
| compound | pIC50 |
| --- | --- |
| Cn1c(-c2ccc(S(C)(=O)=O)cc2)nc2ccc(C3CCN(C4CC5CCC(C4)N5C4CCC4)CC3)c(F)c21 (single isomer, unassigned) [Example 270] | < 4.30 |
| CC(C)CN1CCC(N2CCC(c3ccc4nc(-c5ccc(S(C)(=O)=O)cc5)n(C)c4c3F)CC2)CC1 | < 4.30 |
| CC(C)N1C2CCC1CC(N1CCC(c3cc(F)c4c(c3)nc(-c3ccc(S(C)(=O)=O)cc3)n4C)CC1)C2 (single isomer, unassigned) [Example 92] | < 4.30 |

State recorded pIC50 for all listed compounds.
1. Cc1cc(C2CCN(C3CC4CCC(C3)N4CC3CC3)CC2)cc2[nH]c(-c3ccc(S(C)(=O)=O)cc3)nc12 (stereo not drawn) [Example 335]
2. COc1ccc(-c2nc3c(C)cc(C4CCN(C5CCN(CC(C)C)CC5)CC4)cc3n2C)cc1OC [Example 15, tris(2,2,2-trifluoroacetate)]
3. COc1ccc(-c2nc3c(C)cc(C4CCN(C5CC6CCC(C5)N6C5COC5)CC4)cc3n2C)cc1OC (single isomer, unassigned) [Example 165]

["< 4.30", "< 4.30", "< 4.60"]
